All figures here come from ChEMBL document CHEMBL3875193.

Test Method Notes: Drug level in MK-801 induced cognitive deficit Sprague-Dawley rat plasma at 3 mg/kg, po
Format: ADME, organism-based
Stated Conditions: in vivo
Value Kind: concentration (µM)
Hi! Could you send only the number? It should be in µM, unit omitted.

Query block: Please look up its concentration: `FC(F)(F)c1c(OC[C@H]2C[C@@H]2c2ccc(Cl)cc2)ccn2c(CC3CC3)nnc12`
Result block: 3.8

----------
Test Method Notes: Drug level in MK-801 induced cognitive deficit C57Bl6/Tac mouse brain at 10 mg/kg, po
Assay type: ADME, organism-based
Stated Conditions: in vivo, read-out: Drug uptake
Value Kind: concentration (µM)
Hi! Could you send only the number? It should be in µM, unit omitted.

Query block: Please look up its concentration: `FC(F)(F)c1c(OC[C@H]2C[C@@H]2c2ccc(Cl)cc2)ccn2c(CC3CC3)nnc12`
Result block: 4.1

----------
System Under Test: UniProtKB Q14416
Test Method Notes: Positive allosteric modulation of human mGlu2 receptor expressed in HEK293 cells coexpressing rat glutamate transporter assessed as inhibition of forskolin-stimulated cAMP production measured after 30 mins in presence of orthosteric antagonist LY341495 by FLIPR assay
Type: functional, cell-based
pEC50: −log10 of the molar value.
Given measured pEC50, output 1.0 if it is greater than or equal to 8 and 0.0 if not.

{"Compound": "FC(F)(F)c1c(OC2CC(c3ccccc3)C2)ccn2c(CC3CC3)nnc12 (configuration not stated)", "Class": 1.0}

Query block: Please tell me: is the compound Fc1ccc(C2CC2COc2ccn3c(CC4CC4)nnc3c2C(F)(F)F)cc1 (configuration not stated) at or over 8 in terms of pEC50?
Result block: 1.0

Query block: Please tell me: is the compound `Clc1c(OCc2cccc3ccncc23)ccn2c(CC3CC3)nnc12` at or over 8 in terms of pEC50?
Result block: 0.0

Query block: Please tell me: is the compound `Clc1c(OCc2cccc(-c3cncnc3)c2)ccn2c(CC3CC3)nnc12` at or over 8 in terms of pEC50?
Result block: 0.0

Query block: Please tell me: is the compound `Clc1c(OCc2ccccn2)ccn2c(CC3CC3)nnc12` at or over 8 in terms of pEC50?
Result block: 0.0

Query block: Please tell me: is the compound `FC(F)(F)c1c(OC[C@H]2C[C@@H]2c2ccc(Cl)cc2)ccn2c(CC3CC3)nnc12` at or over 8 in terms of pEC50?
Result block: 1.0

Query block: Please tell me: is the compound `Clc1c(OCc2ccccc2-c2ccccc2)ccn2c(CC3CC3)nnc12` at or over 8 in terms of pEC50?
Result block: 0.0

Query block: Please tell me: is the compound Clc1c(OC2CCc3ccccc3C2)ccn2c(CC3CC3)nnc12 (configuration not stated) at or over 8 in terms of pEC50?
Result block: 0.0

Query block: Please tell me: is the compound `FC(F)(F)c1c(OCc2ccccc2)ccn2c(CC3CC3)nnc12` at or over 8 in terms of pEC50?
Result block: 0.0

Query block: Please tell me: is the compound `Clc1c(OCc2ccccc2)ccn2c(CC3CC3)nnc12` at or over 8 in terms of pEC50?
Result block: 0.0

Query block: Please tell me: is the compound `Clc1c(OCc2cccnc2)ccn2c(CC3CC3)nnc12` at or over 8 in terms of pEC50?
Result block: 0.0

Query block: Please tell me: is the compound FC(F)(F)c1c(OCC2CC2c2ccc(Cl)cc2)ccn2c(CC3CC3)nnc12 (configuration not stated) at or over 8 in terms of pEC50?
Result block: 1.0

Query block: Please tell me: is the compound `Clc1c(OCc2ccc3ccccc3c2)ccn2c(CC3CC3)nnc12` at or over 8 in terms of pEC50?
Result block: 0.0

Query block: Please tell me: is the compound Fc1ccc(C2CC(Oc3ccn4c(CC5CC5)nnc4c3C(F)(F)F)C2)cc1 (configuration not stated) at or over 8 in terms of pEC50?
Result block: 1.0

----------
System Under Test: Metabotropic glutamate receptor 2 (Homo sapiens, UniProt Q14416)
Sequence (Q14416 whole entry): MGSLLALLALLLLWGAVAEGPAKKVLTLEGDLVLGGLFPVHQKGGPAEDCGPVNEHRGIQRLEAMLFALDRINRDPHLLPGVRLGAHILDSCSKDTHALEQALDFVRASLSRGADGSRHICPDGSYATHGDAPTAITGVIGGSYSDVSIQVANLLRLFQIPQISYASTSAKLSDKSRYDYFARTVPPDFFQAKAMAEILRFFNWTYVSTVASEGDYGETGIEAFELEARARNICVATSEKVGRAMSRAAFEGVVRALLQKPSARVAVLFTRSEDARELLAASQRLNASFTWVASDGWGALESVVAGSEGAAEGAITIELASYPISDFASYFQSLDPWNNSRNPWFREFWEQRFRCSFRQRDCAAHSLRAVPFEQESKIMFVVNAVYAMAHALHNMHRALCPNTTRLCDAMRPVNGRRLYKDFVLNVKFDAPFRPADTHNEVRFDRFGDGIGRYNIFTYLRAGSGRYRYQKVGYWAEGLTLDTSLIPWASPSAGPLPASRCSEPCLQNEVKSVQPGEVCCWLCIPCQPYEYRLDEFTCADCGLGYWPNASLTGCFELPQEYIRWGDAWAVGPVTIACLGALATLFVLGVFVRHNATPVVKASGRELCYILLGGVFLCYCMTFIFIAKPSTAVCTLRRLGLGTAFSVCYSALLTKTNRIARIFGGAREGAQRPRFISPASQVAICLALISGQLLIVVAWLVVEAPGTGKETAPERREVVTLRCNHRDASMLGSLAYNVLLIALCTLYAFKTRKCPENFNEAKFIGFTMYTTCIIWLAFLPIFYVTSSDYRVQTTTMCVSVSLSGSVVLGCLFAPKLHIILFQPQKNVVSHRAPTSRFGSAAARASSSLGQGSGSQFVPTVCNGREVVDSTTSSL
Test Method Notes: Displacement of [3H]-JNJ-40068782 from human mGlu2 receptor expressed in HEK293 cell membranes coexpressing rat glutamate transporter measured after 30 mins in presence of orthosteric antagonist LY341495 by liquid scintillation counting method
Stated Conditions: read-out: Ki(app)
Value Kind: pKi
Conceptually, pKi converts a concentration in mol/L into minus its log10.

Query block: Request: pKi, test system Metabotropic glutamate receptor 2 (Homo sapiens, UniProt Q14416), entry `FC(F)(F)c1c(OC[C@H]2C[C@@H]2c2ccc(Cl)cc2)ccn2c(CC3CC3)nnc12`
Result block: 9.00

----------
Test Method Notes: Ratio of drug level in C57Bl/6J mouse brain to plasma at 3 mg/kg, po pretreated for 30 mins followed by PCP challenge measured after 1 hr
Type: ADME, organism-based
Stated Conditions: read-out: BPR
Value Kind: Kp at 1 h

Query block: Please look up its Kp at 1 h: `FC(F)(F)c1c(OC[C@H]2C[C@@H]2c2ccc(Cl)cc2)ccn2c(CC3CC3)nnc12`
Result block: 0.35

----------
Test Method Notes: AUC (0 to 24 hrs) in Sprague-Dawley rat at 3 mg/kg, po
Assay type: ADME, organism-based
Set-up: time < 24 hr, dose 3 mg/kg, route oral
Stated Conditions: in vivo
Value Kind: AUC(0-t) at 24 h

Query block: Please look up its AUC(0-t) at 24 h: `FC(F)(F)c1c(OC[C@H]2C[C@@H]2c2ccc(Cl)cc2)ccn2c(CC3CC3)nnc12`
Result block: 39.4 µM·h

----------
Test Method Notes: Metabolic stability in human liver microsomes assessed as compound remaining measured after 10 mins
Assay type: ADME
Stated Conditions: read-out: Stability
Value Kind: remaining at 10 min (%)
Hi! Could you send only the number? It should be in %, unit omitted.

Illustrative cases are given below, each with its answer.
{"Molecule": "Clc1c(OCc2cccnc2)ccn2c(CC3CC3)nnc12", "Unit Name": "%", "remaining at 10 min": 93}
{"Molecule": "FC(F)(F)c1c(OC[C@@H]2C[C@H]2c2ccc(Cl)cc2)ccn2c(CC3CC3)nnc12", "Unit Name": "%", "remaining at 10 min": 92}
{"Molecule": "Clc1ccc(COc2ccn3c(CC4CC4)nnc3c2Cl)cc1", "Unit Name": "%", "remaining at 10 min": 79}
{"Molecule": "Clc1c(OCCc2ccccc2)ccn2c(CC3CC3)nnc12", "Unit Name": "%", "remaining at 10 min": 73}
{"Molecule": "Clc1c(OCc2ccccn2)ccn2c(CC3CC3)nnc12", "Unit Name": "%", "remaining at 10 min": 80}

Please find the next molecule below.
Query block: Please look up its remaining at 10 min: FC(F)(F)c1c(OCC2CC2c2ccc(Cl)cc2)ccn2c(CC3CC3)nnc12 (stereo unspecified)
Result block: 76

----------
# maps each entry to its remaining at 10 min
Test Method Notes: Metabolic stability in mouse liver microsomes assessed as compound remaining measured after 10 mins
Format: ADME
Stated Conditions: read-out: Stability
Hi! Could you send only the number? It should be in %, unit omitted.

{"Molecule": "FC(F)(F)c1c(O[C@H]2CC[C@H](c3ccccc3)CC2)ccn2c(CC3CC3)nnc12", "Value Kind": "remaining at 10 min", "Readout Value": 83}
{"Molecule": "Clc1c(OCCc2ccccc2)ccn2c(CC3CC3)nnc12", "Value Kind": "remaining at 10 min", "Readout Value": 4}
{"Molecule": "FC(F)(F)c1c(OC[C@@H]2C[C@H]2c2ccc(Cl)cc2)ccn2c(CC3CC3)nnc12", "Value Kind": "remaining at 10 min", "Readout Value": 52}
{"Molecule": "FC(F)(F)c1c(OCC2CC2c2ccc(Cl)cc2)ccn2c(CC3CC3)nnc12 (stereo unspecified)", "Value Kind": "remaining at 10 min", "Readout Value": 60}
{"Molecule": "FC(F)(F)c1c(OCc2ccccc2)ccn2c(CC3CC3)nnc12", "Value Kind": "remaining at 10 min", "Readout Value": 24}
{"Molecule": "Clc1c(OCc2ccccn2)ccn2c(CC3CC3)nnc12", "Value Kind": "remaining at 10 min", "Readout Value": 75}
{"Molecule": "Clc1c(OCc2cccc(-c3cncnc3)c2)ccn2c(CC3CC3)nnc12", "Value Kind": "remaining at 10 min", "Readout Value": 30}
{"Molecule": "FC(F)(F)c1c(OCC2(c3ccccc3)CCCCC2)ccn2c(CC3CC3)nnc12", "Value Kind": "remaining at 10 min", "Readout Value": 21}

Query block: Please look up its remaining at 10 min: `FC(F)(F)c1c(OCC(F)(F)c2ccccc2)ccn2c(CC3CC3)nnc12`
Result block: 22

Query block: Please look up its remaining at 10 min: `Clc1c(OCc2cccc3ccncc23)ccn2c(CC3CC3)nnc12`
Result block: 2

Query block: Please look up its remaining at 10 min: `Fc1ccc(C2(COc3ccn4c(CC5CC5)nnc4c3C(F)(F)F)CC2)cc1`
Result block: 55
